Target: 5-hydroxytryptamine receptor 4 (Homo sapiens)
Test: biochemical
Description: Displacement of [3H]GR113808 from human 5HT4D receptor expressed in HEK293 cells after 30 mins by liquid scintillation counting
property_name: Ki
Note: state the figure and append the unit.

Respond only with Ki recorded for `CC(C)COc1cccc2onc(OCC3CCN(CC4(O)CCOCC4)CC3)c12`
0.36 nM

For the molecule `O[C@@H]1CC[C@@H](Oc2cccc3onc(OCC4CCN(CC5(O)CCOCC5)CC4)c23)C1` , report Ki.
0.5 nM

Read the entry `CC(C)n1c(=O)n(C(=O)NCC2CCN(CC3(O)CCOCC3)CC2)c2cc(F)ccc21` and write its reported Ki.
1.7 nM

Provide measured Ki value, entry: `CCCCN1CCC(COc2noc3cccc(OC4CCCC4)c23)CC1`
0.74 nM

For `CC(C)(O)COc1cccc2onc(OCC3CCN(CC4(O)CCOCC4)CC3)c12` , write its Ki.
3.6 nM

State its Ki: `CC1(C)C(=O)N(C(=O)NCC2CCN(CC3(O)CCOCC3)CC2)c2cc(F)ccc21`
2.7 nM

Identify Ki associated with the molecule `CCCCN1CCC(COc2noc3cccc(OCC(C)(C)C)c23)CC1`
5.2 nM

---

Experiment: Ratio of free drug concentration in brain to free drug concentration in plasma in sc dosed Sprague-Dawley rat
Assay type: ADME, organism-based
Settings: read-out: K(p,uu,brain)
property_name: Kp uu
Could you respond with only the numeric value?

Could you please provide reported Kp uu for `CC1(C)C(=O)N(C(=O)NCC2CCN(CC3(O)CCOCC3)CC2)c2cc(F)ccc21` ? Thanks!
1.8

Tell me its Kp uu given `CC(C)n1c(=O)n(C(=O)NCC2CCN(CC3(O)CCOCC3)CC2)c2cc(F)ccc21` as the entry.
1.6

Give a short answer stating reported Kp uu for `OC1(CN2CCC(COc3noc4cccc(O[C@@H]5CCOC5)c34)CC2)CCOCC1` .
0.7

---

Target: 5-hydroxytryptamine receptor 4 (Homo sapiens, UniProt Q13639)
Sequence (Q13639 whole entry): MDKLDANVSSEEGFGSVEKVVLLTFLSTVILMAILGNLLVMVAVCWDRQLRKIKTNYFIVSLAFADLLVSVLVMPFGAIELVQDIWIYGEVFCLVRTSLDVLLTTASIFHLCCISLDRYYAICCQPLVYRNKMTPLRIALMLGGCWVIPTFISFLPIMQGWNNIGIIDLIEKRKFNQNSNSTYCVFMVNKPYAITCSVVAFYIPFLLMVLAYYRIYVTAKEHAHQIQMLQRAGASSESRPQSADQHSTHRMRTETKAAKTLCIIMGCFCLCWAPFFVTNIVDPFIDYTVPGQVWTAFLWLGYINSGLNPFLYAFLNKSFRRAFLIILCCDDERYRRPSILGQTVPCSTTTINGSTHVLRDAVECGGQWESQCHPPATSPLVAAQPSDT
Test: biochemical
Description: Displacement of [3H]GR113808 from human 5HT4A receptor expressed in HEK293 cells after 30 mins by liquid scintillation counting
property_name: Ki (nM)
# value in nM; strip the unit string

Please give the documented Ki of `CC(C)n1c(=O)n(C(=O)NCC2CCN(CC3(O)CCOCC3)CC2)c2cc(F)ccc21`
4.4

Return the recorded Ki value; entry: `CC1(C)C(=O)N(C(=O)NCC2CCN(CC3(O)CCOCC3)CC2)c2cc(F)ccc21`
4.6

---

Assignment: determine reported EC50 for the given compounds.
All answers are understood in nM, so give the number only.

Give EC50 only, for `CC1(C)C(=O)N(C(=O)NCC2CCN(CC3(O)CCOCC3)CC2)c2cc(F)ccc21` , using 5-hydroxytryptamine receptor 4 (Homo sapiens, UniProt Q13639) data.
0.8

Report the value of EC50 obtained on 5-hydroxytryptamine receptor 4 (Homo sapiens, UniProt Q13639) for `CC(C)n1c(=O)n(C(=O)NCC2CCN(CC3(O)CCOCC3)CC2)c2cc(F)ccc21` .
0.38

---

Experiment: Clearance in iv dosed dog
Format: ADME, organism-based, Canis lupus familiaris
Conditions: in vivo
property_name: clearance (mL/min/kg)
Just the number in mL/min/kg, nothing appended.

Output measured clearance for this item: OC1(CN2CCC(COc3noc4cccc(O[C@@H]5CCOC5)c34)CC2)CCOCC1 [PF-04995274]
21.2

Please report clearance for the following compound: CC1(C)C(=O)N(C(=O)NCC2CCN(CC3(O)CCOCC3)CC2)c2cc(F)ccc21 [PF-03382792]
12.4

Please report the measured clearance for `CC(C)n1c(=O)n(C(=O)NCC2CCN(CC3(O)CCOCC3)CC2)c2cc(F)ccc21`
40
